# Tested on: Staphylococcus aureus MW2 delta-mecA (mecA-)
# assay.details: normalized GFP fluorescence (growth of mecA- strain) (fraction of control range); higher = more growth of mecA- strain
# test.parameters: compound concentration: 150 uM; cefoxitin: subinhibitory; fluorescent label: GFP
Categories are assigned from the measured normalized GFP fluorescence using these intervals: group 1 = under 0.2, group 2 = from 0.2 up to 0.4, group 3 = 0.4 and over

[[record]]
molecule = "O=NN(CCCl)C(=O)NCCCl"
cat = "group 3"

[[record]]
molecule = "CCC1(C)CC(=O)NC1=O (configuration not stated)"
cat = "group 3"


Request: For `CC1=C(/C=C/C(C)=C/C=C/C(C)=C/CO)C(C)(C)CCC1` , which normalized GFP fluorescence bin applies?
Result: group 2

Request: For `CC(=O)OCC[N+](C)(C)C` , which normalized GFP fluorescence bin applies?
Result: group 2

Request: For `COc1cc2ncnc(Nc3ccc(F)c(Cl)c3)c2cc1NC(=O)/C=C/CN1CCCCC1` , which normalized GFP fluorescence bin applies?
Result: group 1

Request: For `CCCNC(=O)NS(=O)(=O)c1ccc(Cl)cc1` , which normalized GFP fluorescence bin applies?
Result: group 2

Request: For `COc1ccc(O)cc1` , which normalized GFP fluorescence bin applies?
Result: group 2

Request: For `CC(O)(CC(=O)O)CC(=O)O` , which normalized GFP fluorescence bin applies?
Result: group 2

Request: For `CN(C)CCc1c[nH]c2ccc(C[C@H]3COC(=O)N3)cc12` , which normalized GFP fluorescence bin applies?
Result: group 2

Request: For CC(C)Cc1ccc(C(C)C(=O)O)cc1 (configuration not stated) , which normalized GFP fluorescence bin applies?
Result: group 1

Request: For `CC(C)c1nc(CN(C)C(=O)N[C@H](C(=O)N[C@@H](Cc2ccccc2)C[C@H](O)[C@H](Cc2ccccc2)NC(=O)OCc2cncs2)C(C)C)cs1` , which normalized GFP fluorescence bin applies?
Result: group 1

Request: For `Cc1ncc([N+](=O)[O-])n1CCO` , which normalized GFP fluorescence bin applies?
Result: group 3
